Please respond with reported TGI for every item in the list.
Test system: MCF7 breast
assayProtocol: NCI tumour cell line growth inhibition, 48 h
# unit: µM | format: bare number

Problem: What value of TGI has been recorded for this entry: CC(C)=C[C@@H]1C[C@H](C)c2c(O)cc(C)c3c2C1=C(C)C(=O)C3=O
Result: 65.8

Problem: What value of TGI has been recorded for this entry: O=c1oc2ccc(Cl)cc2c(=O)n1-c1cc(C(F)(F)F)cc(C(F)(F)F)c1
Result: 13.5

Problem: What value of TGI has been recorded for this entry: O=C(OCC1OC(OC(=O)c2cc(O)c(O)c(OC(=O)c3cc(O)c(O)c(O)c3)c2)C(OC(=O)c2cc(O)c(O)c(OC(=O)c3cc(O)c(O)c(O)c3)c2)C(OC(=O)c2cc(O)c(O)c(OC(=O)c3cc(O)c(O)c(O)c3)c2)C1OC(=O)c1cc(O)c(O)c(OC(=O)c2cc(O)c(O)c(O)c2)c1)c1cc(O)c(O)c(OC(=O)c2cc(O)c(O)c(O)c2)c1 (stereo not drawn)
Result: 34.7

Problem: What value of TGI has been recorded for this entry: CN(C)CCCNc1ccnc2cc([N+](=O)[O-])ccc12
Result: 16.7

Problem: What value of TGI has been recorded for this entry: CC1(C)N=C(N)N=C(N)N1c1cccc(CCCCc2ccccc2)c1
Result: 10.2

Problem: What value of TGI has been recorded for this entry: CC(=O)OC1CCC2(C)C(CCC3C4CC=C(C(C)=O)C4(C)OC(=O)CC32)C1 (stereo not drawn)
Result: 3.01

Problem: What value of TGI has been recorded for this entry: CN1CCN(Cc2ccc(NC(=O)c3nc4ccc5[nH]ncc5c4c4c3CCC4)cc2C(F)(F)F)CC1
Result: 1.82

Problem: What value of TGI has been recorded for this entry: CCCCCCCCCCCC[n+]1ccccc1
Result: 9.38

Problem: What value of TGI has been recorded for this entry: O=Cc1ccc(Oc2c3ccccc3nc3occc23)cc1
Result: 32.2

Problem: What value of TGI has been recorded for this entry: C[C@H]1[C@H](C)CC[C@]2(C(=O)O)CC[C@]3(C)C(=CC[C@@H]4[C@@]5(C)CC[C@H](OC(=O)/C=C/c6ccc(O)cc6)C(C)(C)[C@@H]5CC[C@]43C)[C@H]12
Result: 34.4

---

Please respond with reported TGI for every item in the list.
Tested on: HOP-62 NSCLC
assayProtocol: NCI tumour cell line growth inhibition, 48 h

Problem: What value of TGI has been recorded for this entry: CC(=O)OCC1OC(n2c(=O)n(-c3ccccc3)c(=O)c3cc(Br)cc(Br)c32)C(OC(C)=O)C(OC(C)=O)C1OC(C)=O (configuration not stated)
Result: > 100 µM

Problem: What value of TGI has been recorded for this entry: CCCNC(C#N)c1ccc(OCCCCCCCCCCOc2ccc(C(C#N)NCCC)cc2)cc1 (configuration not stated)
Result: > 100 µM

Problem: What value of TGI has been recorded for this entry: COc1ccccc1N1C(=O)CS(=O)(=O)C1c1cccc(Oc2ccccc2)c1 (configuration not stated)
Result: 49.2 µM

Problem: What value of TGI has been recorded for this entry: COc1ccc2oc(=O)c(CC=C(C)C)c(O)c2c1C
Result: > 100 µM

Problem: What value of TGI has been recorded for this entry: CC(C)=CCC[C@](C)(O[C@@H]1O[C@H](CO)[C@@H](O)[C@H](O)[C@H]1O)[C@H]1CC[C@]2(C)[C@@H]1[C@H](O)C[C@@H]1[C@@]3(C)CC[C@H](O)C(C)(C)[C@@H]3[C@@H](O[C@@H]3O[C@H](CO)[C@@H](O)[C@H](O)[C@H]3O)C[C@]12C
Result: > 100 µM

Problem: What value of TGI has been recorded for this entry: c1ccc2sc(SCN(C3CCCCC3)C3CCCCC3)nc2c1
Result: > 100 µM

Problem: What value of TGI has been recorded for this entry: CCOC(=O)CCC(NC(=O)c1ccc(Nc2nc3ccccc3n3cccc23)cc1)C(=O)OCC (configuration not stated)
Result: 54.2 µM

Problem: What value of TGI has been recorded for this entry: COc1ccc2oc(=O)c3c(c2c1C)OC(C)(C)C=C3
Result: > 100 µM

Problem: What value of TGI has been recorded for this entry: C[C@]12CC[C@H](O)C=C1CC[C@@H]1[C@@H]2CC[C@]2(C)C(=N/O)/C(=C/c3ccncc3)C[C@@H]12
Result: 30.9 µM

Problem: What value of TGI has been recorded for this entry: Cc1ccc(NC(=O)CC/C(CC(=O)c2ccc(F)cc2)=N\NC(=O)C(=O)NN)cc1C
Result: > 100 µM

Problem: What value of TGI has been recorded for this entry: Cn1c(=O)c2c(nc(N)n2C2OC(CO)C(O)C2O)n(C)c1=O (configuration not stated)
Result: > 100 µM

Problem: What value of TGI has been recorded for this entry: CO[C@@H]1C=C[C@@]23c4cc5c(cc4C(O)N(CC2O)C3C1)OCO5 (some centres not stated)
Result: > 100 µM

Problem: What value of TGI has been recorded for this entry: CN(C)CC/C(=N\Nc1ccc(Cl)c(Cl)c1)c1ccccc1
Result: 6.09 µM

Problem: What value of TGI has been recorded for this entry: CC(C)C1SCc2nc3ccccc3n21 (configuration not stated)
Result: > 100 µM

Problem: What value of TGI has been recorded for this entry: CCN1C(=O)c2ccccc2C1(O)c1ccc(Cl)cc1 (configuration not stated)
Result: > 100 µM

Problem: What value of TGI has been recorded for this entry: COCOCC1CCCN1CN1CCC[C@H]1COCOC (some centres not stated)
Result: > 100 µM

Problem: What value of TGI has been recorded for this entry: COc1ccc2c(c1)CCCN1Cc3cc(OC)c(OC)cc3CC21 (configuration not stated)
Result: > 100 µM

---

System: NCI-H226 lung
assayProtocol: NCI tumour cell line growth inhibition, 48 h
Please respond with reported GI50 for every item in the list.

Problem: What value of GI50 has been recorded for this entry: CCCCCCCCCCCC[n+]1ccccc1
Result: 1.44 µM

Problem: What value of GI50 has been recorded for this entry: COc1cc2ccnc3c2c(c1OC)-c1ccc(=O)ccc1-3
Result: 17.7 µM

Problem: What value of GI50 has been recorded for this entry: O=C(NC(=S)NNC(=S)NNc1ccccc1)c1ccccc1
Result: 4.62 µM

Problem: What value of GI50 has been recorded for this entry: Cc1ccc(N=Nc2c(N)nn(-c3ccccc3)c2N)cc1
Result: 59.4 µM

Problem: What value of GI50 has been recorded for this entry: CO[C@H]1C[C@@H]2CC[C@@H](C)[C@@](O)(O2)C(=O)C(=O)N2CCCC[C@H]2C(=O)O[C@H]([C@H](C)C[C@@H]2CC[C@@H](OP(C)(C)=O)[C@H](OC)C2)CC(=O)[C@H](C)/C=C(\C)[C@@H](O)[C@@H](OC)C(=O)[C@H](C)C[C@H](C)/C=C/C=C/C=C/1C
Result: 1.71 µM

---

Tested on: SK-MEL-2 melanoma
assayProtocol: NCI tumour cell line growth inhibition, 48 h
Please respond with reported TGI for every item in the list.
# unit: µM | format: bare number

Problem: What value of TGI has been recorded for this entry: CC(C)(C)OC(=O)NC(Cc1ccc(OCc2ccccc2)cn1)C(=O)NCc1ccccc1 (stereo not given)
Result: 35.7

Problem: What value of TGI has been recorded for this entry: CC[N+]1(C)CCC(O)(c2ccccc2)C(C(=O)c2ccccc2)C1 (stereo not given)
Result: 37.7

Problem: What value of TGI has been recorded for this entry: c1ccc(N=c2sc3ccccc3sc2=Nc2ccccc2)cc1
Result: 3.45

---

Test system: 786-0 renal
assayProtocol: NCI tumour cell line growth inhibition, 48 h
Where a SMILES comes first, the peptide text is derived from it. [ ]: non-standard residue; d: D form. NMeY = CN[C@@H](Cc1ccc(O)cc1)C(=O)O; dNMeF = CN[C@H](Cc1ccccc1)C(=O)O; Sar = CNCC(=O)O
Please respond with reported TGI for every item in the list.

Problem: What value of TGI has been recorded for this entry: CC[C@H](C)[C@@H]1NC(=O)[C@H](Cc2ccc(O)cc2)N(C)C(=O)[C@H](Cc2ccccc2)NC(=O)CN(C)C(=O)[C@@H]2CCCN2C(=O)[C@@H](Cc2ccccc2)N(C)C(=O)[C@H](CC(C)C)NC1=O (cyclo(F[NMeY]IL[dNMeF]P[Sar]))
Result: 5.75 µM

Problem: What value of TGI has been recorded for this entry: CCCCCCCCCCCC[n+]1ccccc1
Result: 3.42 µM

Problem: What value of TGI has been recorded for this entry: CC1(C)CC(=O)c2c(ccc(C(=O)C[C@H](N)CO)c2N)O1
Result: > 33.3 µM

Problem: What value of TGI has been recorded for this entry: C#C[C@@]1(O)[C@@H](CO)O[C@@H](n2ccc3c(N)ncnc32)[C@@H]1O
Result: 6.15 µM

Problem: What value of TGI has been recorded for this entry: Cc1cc(=O)oc2c1cc(OCC(=O)OCCN1CCCCC1)c1occ(C)c12
Result: > 100 µM

Problem: What value of TGI has been recorded for this entry: COc1ccc2c(c1)CC[C@@H]1[C@@H]2CC[C@]2(C)C(=O)/C(=C/c3ccncc3)C[C@@H]12
Result: > 100 µM

Problem: What value of TGI has been recorded for this entry: CC1(O)CC2(O)C=CC3=C(C(=O)c4cccc(O)c4C3=O)C2(O)C(=O)C1O (centres undefined)
Result: 3.84 µM

Problem: What value of TGI has been recorded for this entry: COc1cc(/C=C/c2ccc(OC(C)=O)cc2)cc(OC)c1OC
Result: > 100 µM

Problem: What value of TGI has been recorded for this entry: NC(=S)NNC(=O)CCC(=O)Nc1ccc(Cl)cc1Cl
Result: > 100 µM

Problem: What value of TGI has been recorded for this entry: COc1ccc2oc(=O)c(CC=C(C)C)c(O)c2c1C
Result: > 100 µM

Problem: What value of TGI has been recorded for this entry: CCN(C(=O)CCl)C(C)(C)C(SSSC(c1ccc(Cl)cc1)C(C)(C)N(CC)C(=O)CCl)c1ccc(Cl)cc1 (centres undefined)
Result: 31.2 µM

Problem: What value of TGI has been recorded for this entry: Cc1ccc2c(Nc3cccc(Cl)c3F)ncc(NC(=O)c3csc4c(N)ncnc34)c2c1
Result: > 100 µM

Problem: What value of TGI has been recorded for this entry: CC(C)=CCC[C@](C)(O[C@@H]1O[C@H](CO)[C@@H](O)[C@H](O)[C@H]1O)[C@H]1CC[C@]2(C)[C@@H]1[C@H](O)C[C@@H]1[C@@]3(C)CC[C@H](O)C(C)(C)[C@@H]3[C@@H](O[C@@H]3O[C@H](CO)[C@@H](O)[C@H](O)[C@H]3O)C[C@]12C
Result: > 100 µM

Problem: What value of TGI has been recorded for this entry: CCCCCCCCCCCCCCCCOCC(COP(=O)([O-])OCC[n+]1ccc(N(C)C)cc1)OCC (centres undefined)
Result: 34.2 µM

Problem: What value of TGI has been recorded for this entry: COc1ccc(OC)c(C#Cc2ccc(OC)c(C(=O)NCCc3ccc(F)cc3)c2)c1
Result: > 100 µM

Problem: What value of TGI has been recorded for this entry: O=C(O)c1nc2ccccc2nc1Nc1ccc(F)cc1
Result: > 100 µM

Problem: What value of TGI has been recorded for this entry: CC(C)(C)OC(=O)NC1CCC[C@H]1O (some centres undefined)
Result: > 100 µM

Problem: What value of TGI has been recorded for this entry: Cn1c(Sc2ccc(-c3cccnc3)n2C)ccc1-c1cccnc1
Result: 43.5 µM

Problem: What value of TGI has been recorded for this entry: ClC1=NC(Cl)C(Cl)=N/C1=N\c1ncn[nH]1 (centres undefined)
Result: 11.4 µM

Problem: What value of TGI has been recorded for this entry: O=c1oc2ccc(Cl)cc2c(=O)n1-c1cc(C(F)(F)F)cc(C(F)(F)F)c1
Result: 1.14 µM

Problem: What value of TGI has been recorded for this entry: Nc1ccc(Nc2c3ccccc3nc3ccccc23)cc1
Result: > 10 µM

Problem: What value of TGI has been recorded for this entry: CC(=O)c1nc2ccccc2n1CC(=O)c1ccc(Cl)cc1
Result: 14.1 µM

Problem: What value of TGI has been recorded for this entry: CN(C)c1nc(=NCc2cccs2)ss1
Result: > 10 µM

Problem: What value of TGI has been recorded for this entry: O=C1C[C@@H](Sc2ccccc2)C2(OCCO2)[C@H]2ON3CCC[C@@H]3[C@@H]12
Result: 4.83 µM

Problem: What value of TGI has been recorded for this entry: O=C(Nc1ccccc1)NS(=O)(=O)c1ccc(N2N=C3c4ccccc4CC3C2c2ccccn2)cc1 (centres undefined)
Result: > 100 µM

Problem: What value of TGI has been recorded for this entry: CCC1(C(=O)OC)CCc2c(OC)ccc(OC)c2C1=O (centres undefined)
Result: > 100 µM

Problem: What value of TGI has been recorded for this entry: O=C(O)Cc1cccc2c1OC(c1ccccc1)C(C(=O)c1ccccc1)C2=O (centres undefined)
Result: > 100 µM

Problem: What value of TGI has been recorded for this entry: Nc1nc(Cl)cc(NCC2(CO)CCC(O)C2)n1 (centres undefined)
Result: > 100 µM

Problem: What value of TGI has been recorded for this entry: CC(=O)OCC1OC(n2c(=O)n(-c3ccccc3)c(=O)c3cc(Br)cc(Br)c32)C(OC(C)=O)C(OC(C)=O)C1OC(C)=O (centres undefined)
Result: > 100 µM

Problem: What value of TGI has been recorded for this entry: Nc1ncnc2c(C3OC(CO)C(O)C3O)[nH]nc12 (centres undefined)
Result: 5.65 µM

Problem: What value of TGI has been recorded for this entry: CC(C)c1c(O[Si](C(C)C)(C(C)C)C(C)C)c2c3c(ccc4c3c1OC4(C)C)C(C)CC2 (centres undefined)
Result: > 100 µM

Problem: What value of TGI has been recorded for this entry: COc1cc2c(cc1OC)C1CCc3ccccc3CN1CC2 (centres undefined)
Result: > 100 µM

Problem: What value of TGI has been recorded for this entry: CC1=C(C(=O)CC(=O)C(=O)Nc2ccccc2)Sc2ccccc2N1
Result: > 100 µM

Problem: What value of TGI has been recorded for this entry: O=C(Nc1sccc1S(=O)(=O)c1ccc(Cl)cc1)C(F)(F)F
Result: > 100 µM

Problem: What value of TGI has been recorded for this entry: Nc1ccc2c(c1)CC1c3ccccc3C(C2)c2ccccc21
Result: > 100 µM

Problem: What value of TGI has been recorded for this entry: COc1c(C)c(C/C=C(\C)CCCCO)c(OC)c(OC)c1OC
Result: > 100 µM

Problem: What value of TGI has been recorded for this entry: O=C1/C(=C/c2ccccc2)N=C(c2ccccc2)N1C1Nc2cc3c(cc2S1)NC(N1C(=O)/C(=C/c2ccccc2)N=C1c1ccccc1)S3 (centres undefined)
Result: > 100 µM

Problem: What value of TGI has been recorded for this entry: CCOC(CI)O[C@@H]1C=C[C@H](OC(C)=O)C1 (some centres undefined)
Result: > 100 µM

Problem: What value of TGI has been recorded for this entry: Cc1cc2c3ccccc3ccc2[n+]2ccccc12
Result: > 69.1 µM

Numbers sourced from PubChem BioAssay (NCI).
